MBC values, listed per item
# Tested on: B. Fragilis ATCC 11295
# procedure_text: Anti-anaerobic activity, strain D (microtitre plate MIC/MBC)
# Format: cell-based
# assay_context: Bacteroides fragilis, ATCC11295, 48 h, strain D; less than 5 colonies (99.9% reduction in viable count) after 48 hours; read-out: MBC
Counter-ions that a name gives are not always drawn.

# compound, MBC (µg/mL)
measured = [
    ("CCCCCCCCCCN1CCN=C1C(Cn1ccnc1)c1ccccc1.Cl.Cl (stereo not shown) [Example 26]", 50),
    ("Clc1ccc(N2CCN=C2C(Cn2ccnc2)c2ccccc2)c(Cl)c1 (stereo not shown) [Example 3, hydrochloride]", 0.8),
    ("Brc1ccc(N2CCN=C2C(Cn2ccnc2)c2ccccc2)c(Br)c1 (stereo not shown) [Example 2, dihydrochloride]", 12.5),
    ("CCCCCCCCN1CCN=C1C(Cn1ccnc1)c1ccccc1 (stereo not shown) [Example 19, dihydrochloride]", 100),
    ("CSc1nccn1CC(C1=NCCN1c1ccc(Cl)cc1Cl)c1ccccc1 (stereo not shown) [Example 22, dihydrochloride]", 3.1),
    ("Cc1nccn1CC(C1=NCCN1c1ccc(Cl)cc1Cl)c1ccccc1 (stereo not shown) [Example 21, dihydrochloride]", 0.8),
    ("CC1=NCCN1CC(C1=NCCN1c1ccc(Cl)cc1Cl)c1ccccc1 (stereo not shown) [Example 23, dihydrochloride]", 1.5),
]
